- system.tested: RagA-RagC heterodimer, RagC nucleotide site (Homo sapiens)
- Sequence (Q9HB90 2-399): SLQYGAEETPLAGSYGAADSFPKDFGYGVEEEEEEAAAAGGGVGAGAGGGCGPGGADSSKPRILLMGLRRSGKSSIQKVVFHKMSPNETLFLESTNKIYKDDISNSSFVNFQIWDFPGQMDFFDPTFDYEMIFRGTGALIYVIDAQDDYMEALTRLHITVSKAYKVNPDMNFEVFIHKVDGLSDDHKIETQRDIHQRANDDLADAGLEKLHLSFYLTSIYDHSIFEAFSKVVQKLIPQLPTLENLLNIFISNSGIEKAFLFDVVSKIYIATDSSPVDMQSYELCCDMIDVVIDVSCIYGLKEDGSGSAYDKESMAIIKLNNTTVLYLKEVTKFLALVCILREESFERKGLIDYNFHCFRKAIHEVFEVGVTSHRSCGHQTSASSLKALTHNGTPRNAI
- Sequence (Q7L523 whole entry partner): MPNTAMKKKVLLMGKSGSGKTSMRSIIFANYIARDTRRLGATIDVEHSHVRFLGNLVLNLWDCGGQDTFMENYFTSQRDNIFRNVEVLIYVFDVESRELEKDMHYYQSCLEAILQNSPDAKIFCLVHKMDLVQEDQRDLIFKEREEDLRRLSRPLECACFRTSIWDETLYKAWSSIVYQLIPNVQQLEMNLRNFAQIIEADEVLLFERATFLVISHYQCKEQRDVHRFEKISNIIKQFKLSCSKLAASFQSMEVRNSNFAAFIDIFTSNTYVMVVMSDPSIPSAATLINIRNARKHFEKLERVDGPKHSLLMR
- procedure.text: UV crosslinking of radiolabelled nucleotide, SDS-PAGE autoradiography
reported.metric: Kd (nM)
Please respond with the number in nM and leave the unit unwritten.

Challenge: Request the reported Kd associated with Nc1nc2c(ncn2[C@@H]2O[C@H](COP(=O)(O)OP(=O)(O)OP(=O)(O)O)[C@@H](O)[C@H]2O)c(=O)[nH]1 [GTP]
Response given: 11
